meta.source: ChEMBL document CHEMBL6177980

# EXPERIMENT SUMMARY: AUC (0 to t) in fasted Sprague-Dawley rat at 25 mg/kg, po by LC-MS/MS analysis
# Format: ADME, organism-based
# COND: in vivo
QUANTITY NAME: AUC(0-t) (ng·h/mL)
Expressed in ng·h/mL, but write only the number.

Request: // AUC(0-t) lookup, key: CC(C)C(=O)OC[C@@]1(F)O[C@@H](n2ccc(=O)n(COC(=O)[C@@H]3CCCN3C)c2=O)[C@H](OC(=O)C(C)C)[C@@H]1OC(=O)C(C)C.Cl
Result: 14200

---

# EXPERIMENT SUMMARY: Stability of compound at pH 1.5 assessed as change in purity at 1 mg/ml incubated for 12 hrs by HPLC analysis
# Type: physicochemical
# COND: buffer, pH 1.5, 12 h
QUANTITY NAME: Activity (%)
Answer with a number only, understood to be in %.

Please review the entries below; each comes with its answer.
CC(=O)OC[C@@]1(F)O[C@@H](n2ccc(=O)n(COC(=O)c3cccnc3)c2=O)[C@H](OC(C)=O)[C@@H]1OC(C)=O ... -8.5
CC(C)C(=O)OC[C@@]1(F)O[C@@H](n2ccc(=O)n(COC(=O)c3cccnc3)c2=O)[C@H](OC(=O)C(C)C)[C@@H]1OC(=O)C(C)C ... -4.2
CC(C)C(=O)OC[C@@]1(F)O[C@@H](n2ccc(=O)n(COC(=O)[C@@H](N)C(C)C)c2=O)[C@H](OC(=O)C(C)C)[C@@H]1OC(=O)C(C)C.Cl ... -2.7
CC(C)C(=O)OCn1c(=O)ccn([C@@H]2O[C@](F)(COC(=O)C(C)C)[C@@H](O)[C@H]2O)c1=O ... -6

Let's switch to this molecule now.
Request: I have this molecule here, CC(C)C(=O)OC[C@@]1(F)O[C@@H](n2ccc(=O)n(COC(=O)[C@@H]3CCCN3C)c2=O)[C@H](OC(=O)C(C)C)[C@@H]1OC(=O)C(C)C.Cl , and I need its recorded Activity.
Result: -3.6

---

Reported values of Activity for individual entries
# EXPERIMENT SUMMARY: Stability of compound at pH 6.8 assessed as change in purity at 1 mg/ml incubated for 4 hrs by HPLC analysis
# Format: physicochemical
# COND: buffer, pH 6.8, 4 h
Give the quantity in %, number only.

Solved cases below.
CC(C)C(=O)OCn1c(=O)ccn([C@@H]2O[C@](F)(COC(=O)C(C)C)[C@@H](OC(=O)C(C)C)[C@H]2OC(=O)C(C)C)c1=O ... 0
CC(C)C(=O)OC[C@@]1(F)O[C@@H](n2ccc(=O)n(COC(=O)c3cccnc3)c2=O)[C@H](OC(=O)C(C)C)[C@@H]1OC(=O)C(C)C ... -0.1
CC(C)C(=O)OC[C@@]1(F)O[C@@H](n2ccc(=O)n(COC(=O)[C@@H]3CCCN3C)c2=O)[C@H](OC(=O)C(C)C)[C@@H]1OC(=O)C(C)C.Cl ... -62.9
CC(C)C(=O)OC[C@@]1(F)O[C@@H](n2ccc(=O)n(COC(=O)[C@@H](N)C(C)C)c2=O)[C@H](OC(=O)C(C)C)[C@@H]1OC(=O)C(C)C.Cl ... -90.7
CC(C)C(=O)OC[C@@]1(F)O[C@@H](n2ccc(=O)n(COC(=O)[C@@H]3CCCN3)c2=O)[C@H](OC(=O)C(C)C)[C@@H]1OC(=O)C(C)C.Cl ... -27.6

Request: Any idea what Activity was measured for CC(C)C(=O)OCn1c(=O)ccn([C@@H]2O[C@](F)(COC(=O)C(C)C)[C@@H](O)[C@H]2O)c1=O ?
Result: -1

Request: Dear colleague, I am looking for the recorded Activity of the following compound: CC(=O)OC[C@@]1(F)O[C@@H](n2ccc(=O)n(COC(=O)c3cccnc3)c2=O)[C@H](OC(C)=O)[C@@H]1OC(C)=O
Result: -1.6

Request: # Activity lookup, item CC(=O)O[C@H]1[C@H](n2ccc(=O)n(COC(=O)c3cccnc3)c2=O)O[C@](F)(COC(=O)C(C)C)[C@H]1OC(C)=O
Result: -6.7
